assay text: RSV HEP2-CC50-384-V2 (per Ex. V)
Assay type: cell-based
assay context: human
outcome measure: CC50 at 3 days

{"structure as smiles": "CCCCCCCCCCCCCCCCCCOC[C@H](COP(=O)(O)OC[C@@]1(C#N)O[C@@H](c2ccc3c(N)ncnn23)[C@H](O)[C@@H]1O)Oc1ccc(C#N)c(OC(C)C)c1", "CC50 at 3 days": "> 42 µM"}
{"structure as smiles": "CCCCCCCCCCCCCCCCCCOC[C@H](COP(=O)(O)OC[C@@]1(C#N)O[C@@H](c2ccc3c(N)ncnn23)[C@H](O)[C@@H]1O)Oc1cccc(C#N)c1", "CC50 at 3 days": "> 50 µM"}

Next:
Look up CC50 at 3 days: "CCCCCCCCCCCCCCCCCCC[C@H](COP(=O)(O)OC[C@@]1(C#N)O[C@@H](c2ccc3c(N)ncnn23)[C@H](O)[C@@H]1O)OCc1cc(F)cc(C#N)c1"
> 50 µM

* * *

assay text: in vitro
Type: cell-based
assay context: human
CC50 strictly less than 20 µM = criterion met. Otherwise criterion not met.

{"structure as smiles": "CCCCCCCCCCCCCCCCCCCC[C@H](COP(=O)(O)OC[C@@]1(C#N)O[C@@H](c2ccc3c(N)ncnn23)[C@H](O)[C@@H]1O)Oc1cccc(C#N)c1", "answer label": "criterion not met"}
{"structure as smiles": "CCCCCCCCCCCCCCCCCOC[C@H](COP(=O)(O)OC[C@@]1(C#N)O[C@@H](c2ccc3c(N)ncnn23)[C@H](O)[C@@H]1O)OCc1cc(F)cc(C#N)c1", "answer label": "criterion met"}
{"structure as smiles": "CCCCCCCCCCCCCCCCC[C@@H](COP(=O)(O)OC[C@@]1(C#N)O[C@@H](c2ccc3c(N)ncnn23)[C@H](O)[C@@H]1O)OCc1cc(F)cc(C#N)c1", "answer label": "criterion met"}
{"structure as smiles": "CCCCCCCCCCCCCCCCCCC[C@H](COP(=O)(O)OC[C@@]1(C#N)O[C@@H](c2ccc3c(N)ncnn23)[C@H](O)[C@@H]1O)Oc1cc(OC)c(C#N)c(OC)c1", "answer label": "criterion met"}

As a next step, examine the molecule that follows.
Is it true that CC50 reported for "CCCCCCCCCCCCCCCCCCCC[C@@H](COP(=O)(O)OC[C@@]1(C#N)O[C@@H](c2ccc3c(N)ncnn23)[C@H](O)[C@@H]1O)OCc1cc(F)cc(C#N)c1" is less than 20 µM?
criterion met

* * *

Test system: Respiratory syncytial virus recombinant with luciferase (RSV-Luc5) in HEp-2 cells
assay text: HEp-2 RSV-Luc5 384-well assay (EC50 RSVFLUC Hep2-384, Example R)
Assay type: cell-based
assay context: human respiratory syncytial virus, HEp-2, 72 h, read-out: RSV Hep-2 FLuc EC50 (nM) (per Ex. R)
outcome measure: EC50
Please answer using the number first and the unit second.

{"molecule": "CCCCCCCCCCCCCCCCCCOC[C@H](COP(=O)(O)OC[C@@]1(C#N)O[C@@H](c2ccc3c(N)ncnn23)[C@H](O)[C@@H]1O)OCc1cncc(C#N)c1 [Compound 66]", "EC50": "21 nM"}
{"molecule": "CCCCCCCCCCCCCCCCCCOC[C@H](COP(=O)(O)OC[C@@]1(C#N)O[C@@H](c2ccc3c(N)ncnn23)[C@H](O)[C@@H]1O)OCc1ccc(C#N)c(Cl)c1 [Compound 7]", "EC50": "84 nM"}
{"molecule": "CCCCCCCCCCCCCCCCCCOC[C@@H](COP(=O)(O)OC[C@@]1(C#N)O[C@@H](c2ccc3c(N)ncnn23)[C@H](O)[C@@H]1O)OCc1ccc(C#N)cc1OC [Compound 67]", "EC50": "229 nM"}
{"molecule": "CCCCCCCCCCCCCCOC[C@H](COP(=O)(O)OC[C@@]1(C#N)O[C@@H](c2ccc3c(N)ncnn23)[C@H](O)[C@@H]1O)OCc1ccc(C#N)cc1F [Compound 75]", "EC50": "385 nM"}

Look up EC50: CCCCCCCCCCCCCCCCCCOC[C@H](COP(=O)(O)OC[C@@]1(C#N)O[C@@H](c2ccc3c(N)ncnn23)[C@H](O)[C@@H]1O)OCc1cccc(C#N)n1 [Compound 68]
118 nM

Look up EC50: CCCCCCCCCCCCCCCCCOC[C@H](COP(=O)(O)OC[C@@]1(C#N)O[C@@H](c2ccc3c(N)ncnn23)[C@H](O)[C@@H]1O)OCc1cc(F)cc(C#N)c1 [Compound 53]
113 nM

Look up EC50: CCCCCCCCCCCCCCCCCCC[C@H](COP(=O)(O)OC[C@@]1(C#N)O[C@@H](c2ccc3c(N)ncnn23)[C@H](O)[C@@H]1O)OCc1ccc(C#N)c(OC)c1 [Compound 27]
232 nM

* * *

Measured EC50, listed per entry for reference.
Tested on: HCV Replicon 1B
assay text: HCV Replicon 1B EC50 (Example Q)
Type: cell-based
assay context: Hepatitis C virus, 72 h, read-out: HCV Replicon 1B EC50 (nM) (per Ex. Q)
Protocol: Compounds were serially diluted in ten steps of 1:3 dilutions in 384-well plates. All serial dilutions were performed in four replicates per compound within the same 384-well plate. […] The plate was incubated for 30 min at room temperature before the fluorescence signal (excitation 490 nm, emission 520 nm) was measured with a Perkin-Elmer Envision plate reader. […]
Enter your answer as a number in nM; do not include the unit.

Solved cases below.
{"compound": "CCCCCCCCCCCCCCCCC[C@H](COP(=O)(O)OC[C@@]1(C#N)O[C@@H](c2ccc3c(N)ncnn23)[C@H](O)[C@@H]1O)OCc1cc(F)cc(C#N)c1 [Compound 36]", "quantity unit": "nM", "EC50": 26300}
{"compound": "CCCCCCCCCCCCCCCCCCOC[C@@H](COP(=O)(O)OC[C@@]1(C#N)O[C@@H](c2ccc3c(N)ncnn23)[C@H](O)[C@@H]1O)Oc1ccc(C#N)nc1 [Compound 72]", "quantity unit": "nM", "EC50": 465}
{"compound": "CCCCCCCCCCCCCCCCCCC[C@H](COP(=O)(O)OC[C@@]1(C#N)O[C@@H](c2ccc3c(N)ncnn23)[C@H](O)[C@@H]1O)OCc1ccc(-n2cncn2)c(C#N)c1 [Compound 30]", "quantity unit": "nM", "EC50": 3990}
{"compound": "CCCCCCCCCCCCCCCCCCC[C@H](COP(=O)(O)OC[C@@]1(C#N)O[C@@H](c2ccc3c(N)ncnn23)[C@H](O)[C@@H]1O)OCc1cc(Cl)cc(C#N)c1 [Compound 82]", "quantity unit": "nM", "EC50": 11300}

Look up EC50: CCCCCCCCCCCCCCCCC[C@@H](COP(=O)(O)OC[C@@]1(C#N)O[C@@H](c2ccc3c(N)ncnn23)[C@H](O)[C@@H]1O)OCc1cc(F)cc(C#N)c1 [Compound 74]
26200

Look up EC50: CCCCCCCCCCCCCCCCCCOC[C@H](COP(=O)(O)OC[C@@]1(C#N)O[C@@H](c2ccc3c(N)ncnn23)[C@H](O)[C@@H]1O)OCc1cccc(C#N)n1 [Compound 68]
11500

Look up EC50: CCCCCCCCCCCCCCCCCCCC[C@@H](COP(=O)(O)OC[C@@]1(C#N)O[C@@H](c2ccc3c(N)ncnn23)[C@H](O)[C@@H]1O)OCc1cc(F)cc(C#N)c1 [Compound 70]
19600

* * *

assay text: RSV HEP2-CC50-384-V2 (per Ex. V)
Type: cell-based
assay context: human
Measured CC50 at 3 days, listed per entry for reference.
Enter your answer as a number in µM; do not include the unit.

Solved cases below.
{"structure as smiles": "CCCCCCCCCCCCCCCCCC[C@H](COP(=O)(O)OC[C@@]1(C#N)O[C@@H](c2ccc3c(N)ncnn23)[C@H](O)[C@@H]1O)OCc1cc(Cl)cc(C#N)c1", "quantity unit": "µM", "CC50 at 3 days": 23}
{"structure as smiles": "CCCCCCCCCCCCCCCCCOC[C@H](COP(=O)(O)OC[C@@]1(C#N)O[C@@H](c2ccc3c(N)ncnn23)[C@H](O)[C@@H]1O)OCc1cc(F)cc(C#N)c1", "quantity unit": "µM", "CC50 at 3 days": 32.1}
{"structure as smiles": "CCCCCCCCCCCCCCCCCCC[C@H](COP(=O)(O)OC[C@@]1(C#N)O[C@@H](c2ccc3c(N)ncnn23)[C@H](O)[C@@H]1O)Oc1ccc(C#N)c(OC(C)C)c1", "quantity unit": "µM", "CC50 at 3 days": 35.3}
{"structure as smiles": "CCCCCCCCCCCCCCCCCCCC[C@@H](COP(=O)(O)OC[C@@]1(C#N)O[C@@H](c2ccc3c(N)ncnn23)[C@H](O)[C@@H]1O)OCc1cc(F)cc(C#N)c1", "quantity unit": "µM", "CC50 at 3 days": 43.5}

Look up CC50 at 3 days: "CCCCCCCCCCCCCCCCCCC[C@H](COP(=O)(O)OC[C@@]1(C#N)O[C@@H](c2ccc3c(N)ncnn23)[C@H](O)[C@@H]1O)OCc1ccc(C#N)c(OC(C)C)c1"
30.6
